- Test system: Glutamate receptor ionotropic, NMDA 3A (GRIN3A) ligand-binding domain
- Assay Details: binders of NR3A ligand-binding domain, primary screen, biophysical, differential scanning fluorimetry, uHTS (AID 1259313)
- Condition Notes: NR3A LBD differential scanning fluorimetry, at 25 µM, hits give high values, 0% = protein alone, 100% = glycine-bound protein
The whole screen tested about 340,000 compounds, of which about 8,500 (2.5%) were called active. Shown is part of a subset that was picked to be rich in actives.
Value Kind: Tm shift relative to glycine control (%)
One number for each entry, in %.

Some compounds with known Tm shift relative to glycine control results, for comparison:
>  <Compound>
COC(=O)c1sc(N)c(C(=O)OC)c1COC(=O)CNS(=O)(=O)c1ccc(C)cc1

>  <System Tested>
Glutamate receptor ionotropic, NMDA 3A (GRIN3A) ligand-binding domain

>  <Tm shift relative to glycine control [%]>
13.2

$$$$
>  <Compound>
COC(=O)CNS(=O)(=O)c1ccc(Cc2ccc(S(=O)(=O)NCC(=O)OC)cc2)cc1

>  <System Tested>
Glutamate receptor ionotropic, NMDA 3A (GRIN3A) ligand-binding domain

>  <Tm shift relative to glycine control [%]>
1.25

$$$$
>  <Compound>
O=C(/C=C/c1ccc(Cl)cc1)Nc1ccc(Br)cn1

>  <System Tested>
Glutamate receptor ionotropic, NMDA 3A (GRIN3A) ligand-binding domain

>  <Tm shift relative to glycine control [%]>
0.46

$$$$
>  <Compound>
CCCNC(=O)Nc1ccccc1C(=O)Nc1ccc(OC)cc1

>  <System Tested>
Glutamate receptor ionotropic, NMDA 3A (GRIN3A) ligand-binding domain

>  <Tm shift relative to glycine control [%]>
0

$$$$
>  <Compound>
COc1cc(C(=O)NCCOC(=O)c2cccc(N(C)C)c2)cc(OC)c1OC

>  <System Tested>
Glutamate receptor ionotropic, NMDA 3A (GRIN3A) ligand-binding domain

>  <Tm shift relative to glycine control [%]>
0.47

$$$$
>  <Compound>
N#CCC(=O)NC1CCC(CC2CCC(NC(=O)CC#N)CC2)CC1 (configuration not stated)

>  <System Tested>
Glutamate receptor ionotropic, NMDA 3A (GRIN3A) ligand-binding domain

>  <Tm shift relative to glycine control [%]>
0.51

$$$$

Give Tm shift relative to glycine control for each listed item.
1. O=S(=O)(c1ccc(Cl)cc1)N1CCCN(c2ccc(C(F)(F)F)cn2)CC1
2. COc1ccccc1-c1nnc(NC(=O)c2ccc3ncsc3c2)o1
3. COc1ccc(NS(=O)(=O)c2ccc(C)c(C(=O)NNC(=O)c3csc(N4CCOCC4)n3)c2)cc1
4. CCOc1ccc(Cn2nnc(C(=O)Nc3ccc(OC)cc3OC)c2N)cc1
5. CCC(=O)Nc1cc(C(F)(F)F)ccc1N1CCCC1
6. Cc1nn(C)cc1/C=C1\CCC/C(=C\c2cn(C)nc2C)C1=O
7. COc1cccc2c1C(=O)c1c(O)c3c(c(O)c1C2=O)CC(O)(C(C)=NNC(=O)c1ccc(Cl)c(Cl)c1)CC3OC1CC(N)C(O)C(C)O1 (configuration not stated)

[-4.38, -3.33, 0.91, 2.21, 1.55, -1.19, -18.1]

Give Tm shift relative to glycine control for each listed item.
1. CCOC(=O)C1CCN(C(=O)c2cccc(S(=O)(=O)N(CC)c3ccccc3)c2)CC1
2. C#CCOCCOCCOCCNc1nc(N2CCN(C(=O)[C@H](CCC(=O)O)n3cc(CN)nn3)CC2)nc(N2CCN(C(=O)[C@H](CCC(=O)O)n3cc(CN)nn3)CC2)n1

1. 0.33
2. 1.02
